These measurements were taken from paper PMC6150365.

Measurement Description: Pharmacokinetic study in rats after oral administration of SYD extract and its single and combined TCM extracts (UPLC-MS/MS of plasma)
Cond: male, Sprague-Dawley, rat, plasma, po, 4.01 g·kg^−1 (extract), AUC(0–t), rat plasma, oral LJ + AS + GU extract, n = 6
Outcome Measure: AUC(0-t) (ng·h/mL)
API: value field is a number in ng·h/mL; no unit string.

For this compound ( O=C1C[C@@H](c2ccc(O[C@@H]3O[C@H](CO)[C@@H](O)[C@H](O)[C@H]3O)cc2)Oc2cc(O)ccc21 ), measured AUC(0-t) is 220

More entries:
For this compound ( COC(=O)C1=CO[C@@H](O[C@@H]2O[C@H](CO)[C@@H](O)[C@H](O)[C@H]2O)[C@@H]2[C@@H](C)[C@@H](O)C[C@H]12 ), measured AUC(0-t) is 1660
